test system: Staphylococcus aureus; assay: Antibacterial activity against Staphylococcus aureus 134/93 after 24 hrs by broth microdilution method; assay type: functional; conditions: Staphylococcus aureus, 134/93, 24 h
measurement.label: MIC (µM)

smiles.repr | readout.number
CCCCCCOc1ccc2[nH]c(-c3cccc(OC)c3)c(C3=C(Br)C(=O)NC3=O)c2c1 | 12.6
O=C(CCCc1[nH]c2ccccc2c1C1=C(Br)C(=O)NC1=O)Nc1ccccc1 | 1.7
CCc1ccc2[nH]c(-c3cccc(OC)c3)c(C3=C(Br)C(=O)NC3=O)c2c1 | 0.5
COc1ccc2[nH]c(-c3ccccc3)c(C3=C(Br)C(=O)NC3=O)c2c1 | 1
CCCCCCc1cccc2c(C3=C(Br)C(=O)NC3=O)c(-c3ccc(OC)cc3)[nH]c12 | 0.4
CCCCOc1ccc2[nH]c(-c3ccc(OC)cc3)c(C3=C(Br)C(=O)NC3=O)c2c1 | 0.1
CCCCCOc1ccc2[nH]c(-c3ccccc3)c(C3=C(Br)C(=O)NC3=O)c2c1 | 27
CCCCOc1ccc2[nH]c(-c3ccccc3)c(C3=C(Br)C(=O)NC3=O)c2c1 | 0.11
CCCCOc1ccc2[nH]c(-c3cccc(OC)c3)c(C3=C(Br)C(=O)NC3=O)c2c1 | 3.3

* * *

logP values, listed per item
assay: Partition coefficient, log P of the compound; format: physicochemical; conditions: octanol/water
measurement.label: logP

smiles.repr | measurement.label | readout.number
CCc1ccc2[nH]c(-c3ccccc3)c(C3=C(Br)C(=O)NC3=O)c2c1 | logP | 3.15
O=C(CCCCc1[nH]c2ccccc2c1C1=C(Br)C(=O)NC1=O)Nc1ccccc1 | logP | 2.56
Cc1ccc2[nH]c(-c3ccccc3)c(C3=C(Br)C(=O)NC3=O)c2c1 | logP | 2.88
CCCCOc1ccc(-c2[nH]c3ccccc3c2C2=C(Br)C(=O)NC2=O)cc1 | logP | 3.87
CCc1cccc2c(C3=C(Br)C(=O)NC3=O)c(-c3ccccc3)[nH]c12 | logP | 3.42
Cc1cccc(NC(=O)CCCc2[nH]c3ccccc3c2C2=C(Br)C(=O)NC2=O)c1 | logP | 2.56
CCCCOc1ccc2[nH]c(-c3cccc(OC)c3)c(C3=C(Br)C(=O)NC3=O)c2c1 | logP | 3.46
CCCc1cccc2c(C3=C(Br)C(=O)NC3=O)c(-c3ccc(OC)cc3)[nH]c12 | logP | 3.58
COc1ccc(-c2[nH]c3ccc(C)cc3c2C2=C(Br)C(=O)NC2=O)cc1 | logP | 2.85
Cc1ccccc1NC(=O)CCCc1[nH]c2ccccc2c1C1=C(Br)C(=O)NC1=O | logP | 2.56

* * *

Below: a set of entries, each annotated with reported logP.
assay: Partition coefficient, log P of the compound; format: physicochemical; conditions: octanol/water
measurement.label: logP

smiles.repr | readout.number
COc1ccc(-c2[nH]c3c(C)cccc3c2C2=C(Br)C(=O)NC2=O)cc1 | 3.12
CCCCOc1ccc2[nH]c(-c3ccc(OC)cc3)c(C3=C(Br)C(=O)NC3=O)c2c1 | 3.43
CCCCCc1ccc2[nH]c(-c3ccc(OC)cc3)c(C3=C(Br)C(=O)NC3=O)c2c1 | 4.1
CCCCCOc1ccc2[nH]c(-c3ccc(OC)cc3)c(C3=C(Br)C(=O)NC3=O)c2c1 | 3.77
CCCCCCc1cccc2c(C3=C(Br)C(=O)NC3=O)c(-c3ccc(OC)cc3)[nH]c12 | 4.27

* * *

system: Staphylococcus aureus; test: Antibacterial activity against Staphylococcus aureus 134/93 after 24 hrs by broth microdilution method; assay type: functional; conditions: Staphylococcus aureus, 134/93, 24 h
measurement.label: log10 MIC (log10 of the value in µM)

smiles.repr | readout.number
COc1ccc(-c2[nH]c3c(C)cccc3c2C2=C(Br)C(=O)NC2=O)cc1 | 0.30
CCc1cccc2c(C3=C(Br)C(=O)NC3=O)c(-c3ccccc3)[nH]c12 | 0.40
CCCCOc1ccc(-c2[nH]c3ccccc3c2C2=C(Br)C(=O)NC2=O)cc1 | -0.35
CCCCCc1ccc2[nH]c(-c3ccccc3)c(C3=C(Br)C(=O)NC3=O)c2c1 | -0.04
O=C(CCCCCc1[nH]c2ccccc2c1C1=C(Br)C(=O)NC1=O)Nc1ccccc1 | -1.00
CCCCCCc1ccc2[nH]c(-c3cccc(OC)c3)c(C3=C(Br)C(=O)NC3=O)c2c1 | 1.41
CCCOc1ccc2[nH]c(-c3ccccc3)c(C3=C(Br)C(=O)NC3=O)c2c1 | -0.02
CCCCc1cccc2c(C3=C(Br)C(=O)NC3=O)c(-c3ccccc3)[nH]c12 | -0.60
CCOc1ccc2[nH]c(-c3cccc(OC)c3)c(C3=C(Br)C(=O)NC3=O)c2c1 | 0.54
Cc1ccc2[nH]c(-c3ccccc3)c(C3=C(Br)C(=O)NC3=O)c2c1 | -0.89
COc1ccc(-c2[nH]c3ccc(C)cc3c2C2=C(Br)C(=O)NC2=O)cc1 | -0.92
Cc1cccc2c(C3=C(Br)C(=O)NC3=O)c(-c3ccccc3)[nH]c12 | 0.60
CCc1ccc2[nH]c(-c3ccccc3)c(C3=C(Br)C(=O)NC3=O)c2c1 | -0.89
CCCCc1ccc2[nH]c(-c3cccc(OC)c3)c(C3=C(Br)C(=O)NC3=O)c2c1 | 0.53
CCOc1ccc2[nH]c(-c3ccc(OC)cc3)c(C3=C(Br)C(=O)NC3=O)c2c1 | 0.30
Cc1ccccc1NC(=O)CCCc1[nH]c2ccccc2c1C1=C(Br)C(=O)NC1=O | -0.49
CCCCCc1cccc2c(C3=C(Br)C(=O)NC3=O)c(-c3ccccc3)[nH]c12 | -0.30
CCCOc1ccc2[nH]c(-c3ccc(OC)cc3)c(C3=C(Br)C(=O)NC3=O)c2c1 | -0.36
Cc1ccc(NC(=O)CCCc2[nH]c3ccccc3c2C2=C(Br)C(=O)NC2=O)cc1 | 0.20
COc1cccc(-c2[nH]c3ccc(C)cc3c2C2=C(Br)C(=O)NC2=O)c1 | -0.70
O=C(CCCCc1[nH]c2ccccc2c1C1=C(Br)C(=O)NC1=O)Nc1ccccc1 | 0.23

* * *

assay: Partition coefficient, log P of the compound; format: physicochemical; details: octanol/water
The entries below come with measured logP values attached.
measurement.label: logP

smiles.repr | readout.number
O=C(CCCCCCc1[nH]c2ccccc2c1C1=C(Br)C(=O)NC1=O)Nc1ccccc1 | 2.85
CCCCCCCCCCOc1ccc(-c2[nH]c3ccccc3c2C2=C(Br)C(=O)NC2=O)cc1 | 5.94
CCCOc1ccc2[nH]c(-c3ccc(OC)cc3)c(C3=C(Br)C(=O)NC3=O)c2c1 | 3.12
CCCCc1ccc2[nH]c(-c3cccc(OC)c3)c(C3=C(Br)C(=O)NC3=O)c2c1 | 3.81
CCOc1ccc2[nH]c(-c3cccc(OC)c3)c(C3=C(Br)C(=O)NC3=O)c2c1 | 2.97
O=C(CCc1[nH]c2ccccc2c1C1=C(Br)C(=O)NC1=O)Nc1ccccc1 | 2.42
CCCc1ccc2[nH]c(-c3ccc(OC)cc3)c(C3=C(Br)C(=O)NC3=O)c2c1 | 3.45
CCCCc1ccc2[nH]c(-c3ccc(OC)cc3)c(C3=C(Br)C(=O)NC3=O)c2c1 | 3.83
CCOc1ccc2[nH]c(-c3ccc(OC)cc3)c(C3=C(Br)C(=O)NC3=O)c2c1 | 2.77
CCCCc1ccc2[nH]c(-c3ccccc3)c(C3=C(Br)C(=O)NC3=O)c2c1 | 3.74
CCCCCCOc1ccc2[nH]c(-c3ccccc3)c(C3=C(Br)C(=O)NC3=O)c2c1 | 4.08
O=C1NC(=O)C(c2c(-c3ccc(OCc4cccc5ccccc45)cc3)[nH]c3ccccc23)=C1Br | 3.76
O=C1NC(=O)C(c2c(-c3ccc(OCc4ccccc4)cc3)[nH]c3ccccc23)=C1Br | 3.3
CCCCOc1ccc2[nH]c(-c3ccccc3)c(C3=C(Br)C(=O)NC3=O)c2c1 | 3.42
CCCc1ccc2[nH]c(-c3ccccc3)c(C3=C(Br)C(=O)NC3=O)c2c1 | 3.43
COc1cccc(-c2[nH]c3ccc(C)cc3c2C2=C(Br)C(=O)NC2=O)c1 | 3.12
CCc1ccc2[nH]c(-c3ccc(OC)cc3)c(C3=C(Br)C(=O)NC3=O)c2c1 | 3.23
CCCCc1cccc2c(C3=C(Br)C(=O)NC3=O)c(-c3ccc(OC)cc3)[nH]c12 | 3.81
COc1cccc(-c2[nH]c3ccc(OC)cc3c2C2=C(Br)C(=O)NC2=O)c1 | 2.79
